Entry source: the kinase profiling compilation of Christmann-Franck et al. (2016)

assayed_system: STK24 (human)
experimental_protocol: radiometric filter-binding kinase assay, Kinase HotSpot
assay_context: compound 0.5 µM; ATP 10 µM
readout_label: residual activity (%)
Numbers only, in %.

>>> measured_result("COc1ccc(Cl)cc1NC(=O)Nc1cc(C)nc2ccccc12")
81.6
>>> measured_result("COc1ccc2c(c1)c(C1=C(c3c[nH]c4ccccc34)C(=O)NC1=O)cn2CCCN(C)C")
36.6
>>> measured_result("CN(C)CCCn1cc(C2=C(c3c[nH]c4ccccc34)C(=O)NC2=O)c2ccccc21")
52.9
>>> measured_result("Cc1cncc2cccc(S(=O)(=O)N3CCCN(C(=O)CN)C[C@H]3C)c12")
92.4
>>> measured_result("N#Cc1c[nH]c2c[nH]/c(=N\\Cc3cccnc3)cc2/c1=N\\c1ccc(F)c(Cl)c1")
95.6
>>> measured_result("COc1ccc2c(c1)/C(=C/c1cnc[nH]1)C(O)=N2")
53.1
>>> measured_result("CC(C)(C)c1cc(C=C(C#N)C#N)cc(Br)c1O")
96.3
>>> measured_result("Cn1c2ccccc2c2c3c(c4c5ccccc5n(CCC#N)c4c21)CNC3=O")
62.8

Report residual activity for each item below.
1. COc1ccc(S(=O)(=O)N(CCO)c2ccccc2CN(C)C/C=C/c2ccc(Cl)cc2)cc1
2. NC(=O)c1cccc(-c2cc(Nc3ccc(OC(F)(F)F)cc3)ncn2)c1

[101, 89.5]

====

assayed_system: UniProt:Q13043
Sequence (Q13043 whole entry, looked up): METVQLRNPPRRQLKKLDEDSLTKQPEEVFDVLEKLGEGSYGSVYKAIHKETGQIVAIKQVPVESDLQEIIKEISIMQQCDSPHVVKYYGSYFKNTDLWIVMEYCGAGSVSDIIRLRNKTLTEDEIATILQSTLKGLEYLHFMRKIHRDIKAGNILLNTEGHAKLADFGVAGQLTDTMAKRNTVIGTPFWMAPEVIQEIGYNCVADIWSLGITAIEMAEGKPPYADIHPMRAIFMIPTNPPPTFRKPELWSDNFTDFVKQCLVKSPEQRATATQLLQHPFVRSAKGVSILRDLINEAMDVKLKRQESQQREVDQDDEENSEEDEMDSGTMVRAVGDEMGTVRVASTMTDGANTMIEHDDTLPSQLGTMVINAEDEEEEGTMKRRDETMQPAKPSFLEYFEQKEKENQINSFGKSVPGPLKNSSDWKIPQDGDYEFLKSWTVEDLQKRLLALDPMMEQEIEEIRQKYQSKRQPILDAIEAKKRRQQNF
experimental_protocol: radiometric filter-binding kinase assay, Kinase HotSpot
assay_context: compound 0.5 µM; ATP 10 µM
readout_label: residual activity (%)
One number for each entry, in %.

>>> measured_result("Cc1nc(-c2ccccc2)c(-c2ccncc2)o1")
104
>>> measured_result("Ic1cccc(CSc2nnc(-c3ccncc3)o2)c1")
102
>>> measured_result("O=C1C(Cl)=C(N2C(=O)CCC2=O)C(=O)c2ccccc21")
89.1

Report residual activity for each item below.
1. COc1cc2ncnc(Nc3ccc(Oc4ccccc4)cc3)c2cc1OC
2. Cn1c2ccccc2c2c3c(c4c5ccccc5n(CCC#N)c4c21)CNC3=O
3. NC(=O)c1cccc(-c2cc(Nc3ccc(OC(F)(F)F)cc3)ncn2)c1
4. O=C(c1cc2cc(O)ccc2[nH]1)c1cc2cc(O)ccc2[nH]1
5. COc1ccc2c(c1)c(C1=C(c3c[nH]c4ccccc34)C(=O)NC1=O)cn2CCCN(C)C
6. COc1ccc(C(=O)Nc2sc3c(c2C(N)=O)CCCC3)cc1OC
7. Cc1cccc(-c2nc(C(C)(C)C)[nH]c2-c2ccc3c(c2)OCO3)n1
8. N#Cc1c[nH]c2c[nH]/c(=N\Cc3cccnc3)cc2/c1=N\c1ccc(F)c(Cl)c1

[107, 3.73, 88.7, 33.7, 65.2, 104, 98.7, 100]

====

assayed_system: SIK2 (human) (UniProt Q9H0K1)
experimental_protocol: radiometric filter-binding kinase assay, Kinase HotSpot
assay_context: compound 0.5 µM; ATP 10 µM
Kindly state residual activity for each of the entries shown.
Answers are plain numbers, in %.

Below: 4 compounds and their reported residual activity.
>>> measured_result("CS(=O)(=O)CCNCc1ccc(-c2ccc3ncnc(Nc4ccc(OCc5cccc(F)c5)c(Cl)c4)c3c2)o1")
101
>>> measured_result("O=C(c1cc2cc(O)ccc2[nH]1)c1cc2cc(O)ccc2[nH]1")
78.3
>>> measured_result("COc1ccc(C(=O)Nc2sc3c(c2C(N)=O)CCCC3)cc1OC")
102
>>> measured_result("N#Cc1c[nH]c2c[nH]/c(=N\\Cc3cccnc3)cc2/c1=N\\c1ccc(F)c(Cl)c1")
97.6

Report residual activity for each item below.
1. O=C1NC(=O)c2c1c1c3ccccc3[nH]c1n1cncc21
2. COc1ccc2c(c1)c(C1=C(c3c[nH]c4ccccc34)C(=O)NC1=O)cn2CCCN(C)C
3. O=C1c2ccccc2-c2nc3nnnn3nc21

1. 91.9
2. 103
3. 106

====

assayed_system: CAMK4 (human) (UniProt Q16566)
Sequence (Q16566 whole entry, looked up): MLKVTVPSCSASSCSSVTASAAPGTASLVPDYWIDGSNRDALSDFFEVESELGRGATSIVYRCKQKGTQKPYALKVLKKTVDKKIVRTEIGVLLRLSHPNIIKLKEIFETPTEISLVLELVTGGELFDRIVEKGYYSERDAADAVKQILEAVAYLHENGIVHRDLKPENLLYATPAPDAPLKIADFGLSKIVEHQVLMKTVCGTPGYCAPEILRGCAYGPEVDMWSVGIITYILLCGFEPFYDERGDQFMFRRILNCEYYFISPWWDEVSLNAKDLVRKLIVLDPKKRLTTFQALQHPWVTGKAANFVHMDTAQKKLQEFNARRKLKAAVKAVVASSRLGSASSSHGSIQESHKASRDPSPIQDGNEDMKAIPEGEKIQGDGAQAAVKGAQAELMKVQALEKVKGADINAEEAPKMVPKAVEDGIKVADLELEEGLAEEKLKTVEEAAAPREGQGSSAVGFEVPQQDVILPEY
experimental_protocol: radiometric filter-binding kinase assay, Kinase HotSpot
assay_context: compound 0.5 µM; ATP 10 µM
Kindly state residual activity for each of the entries shown.
Give bare numbers, in %.

Below: 3 compounds and their reported residual activity.
>>> measured_result("Cc1nc(-c2ccccc2)c(-c2ccncc2)o1")
97.2
>>> measured_result("Cc1cncc2cccc(S(=O)(=O)N3CCCN(C(=O)CN)C[C@H]3C)c12")
90.6
>>> measured_result("CN(C)CCCn1cc(C2=C(c3c[nH]c4ccccc34)C(=O)NC2=O)c2ccccc21")
89.5

Report residual activity for each item below.
1. N#Cc1c[nH]c2c[nH]/c(=N\Cc3cccnc3)cc2/c1=N\c1ccc(F)c(Cl)c1
2. O=C(c1cc2cc(O)ccc2[nH]1)c1cc2cc(O)ccc2[nH]1
3. C[C@@H]1CCN(C(=O)CC#N)C[C@@H]1N(C)c1ncnc2[nH]ccc12
4. COc1ccc(Cl)cc1NC(=O)Nc1cc(C)nc2ccccc12
5. CCCCc1c(-c2ccc(OC)cc2)[nH]c2nccnc12
6. COc1ccc(S(=O)(=O)N(CCO)c2ccccc2CN(C)C/C=C/c2ccc(Cl)cc2)cc1

1: 95.2; 2: 96.5; 3: 96.3; 4: 93.6; 5: 97.6; 6: 97.5

Recorded residual activity for COc1cc(Nc2c(C#N)cnc3cc(OCCCN4CCN(C)CC4)c(OC)cc23)c(Cl)cc1Cl , please? 90.7

====

Kindly state residual activity for each of the entries shown.
assayed_system: WNK3 (human) (UniProt Q9BYP7)
Sequence (Q9BYP7 whole entry, looked up): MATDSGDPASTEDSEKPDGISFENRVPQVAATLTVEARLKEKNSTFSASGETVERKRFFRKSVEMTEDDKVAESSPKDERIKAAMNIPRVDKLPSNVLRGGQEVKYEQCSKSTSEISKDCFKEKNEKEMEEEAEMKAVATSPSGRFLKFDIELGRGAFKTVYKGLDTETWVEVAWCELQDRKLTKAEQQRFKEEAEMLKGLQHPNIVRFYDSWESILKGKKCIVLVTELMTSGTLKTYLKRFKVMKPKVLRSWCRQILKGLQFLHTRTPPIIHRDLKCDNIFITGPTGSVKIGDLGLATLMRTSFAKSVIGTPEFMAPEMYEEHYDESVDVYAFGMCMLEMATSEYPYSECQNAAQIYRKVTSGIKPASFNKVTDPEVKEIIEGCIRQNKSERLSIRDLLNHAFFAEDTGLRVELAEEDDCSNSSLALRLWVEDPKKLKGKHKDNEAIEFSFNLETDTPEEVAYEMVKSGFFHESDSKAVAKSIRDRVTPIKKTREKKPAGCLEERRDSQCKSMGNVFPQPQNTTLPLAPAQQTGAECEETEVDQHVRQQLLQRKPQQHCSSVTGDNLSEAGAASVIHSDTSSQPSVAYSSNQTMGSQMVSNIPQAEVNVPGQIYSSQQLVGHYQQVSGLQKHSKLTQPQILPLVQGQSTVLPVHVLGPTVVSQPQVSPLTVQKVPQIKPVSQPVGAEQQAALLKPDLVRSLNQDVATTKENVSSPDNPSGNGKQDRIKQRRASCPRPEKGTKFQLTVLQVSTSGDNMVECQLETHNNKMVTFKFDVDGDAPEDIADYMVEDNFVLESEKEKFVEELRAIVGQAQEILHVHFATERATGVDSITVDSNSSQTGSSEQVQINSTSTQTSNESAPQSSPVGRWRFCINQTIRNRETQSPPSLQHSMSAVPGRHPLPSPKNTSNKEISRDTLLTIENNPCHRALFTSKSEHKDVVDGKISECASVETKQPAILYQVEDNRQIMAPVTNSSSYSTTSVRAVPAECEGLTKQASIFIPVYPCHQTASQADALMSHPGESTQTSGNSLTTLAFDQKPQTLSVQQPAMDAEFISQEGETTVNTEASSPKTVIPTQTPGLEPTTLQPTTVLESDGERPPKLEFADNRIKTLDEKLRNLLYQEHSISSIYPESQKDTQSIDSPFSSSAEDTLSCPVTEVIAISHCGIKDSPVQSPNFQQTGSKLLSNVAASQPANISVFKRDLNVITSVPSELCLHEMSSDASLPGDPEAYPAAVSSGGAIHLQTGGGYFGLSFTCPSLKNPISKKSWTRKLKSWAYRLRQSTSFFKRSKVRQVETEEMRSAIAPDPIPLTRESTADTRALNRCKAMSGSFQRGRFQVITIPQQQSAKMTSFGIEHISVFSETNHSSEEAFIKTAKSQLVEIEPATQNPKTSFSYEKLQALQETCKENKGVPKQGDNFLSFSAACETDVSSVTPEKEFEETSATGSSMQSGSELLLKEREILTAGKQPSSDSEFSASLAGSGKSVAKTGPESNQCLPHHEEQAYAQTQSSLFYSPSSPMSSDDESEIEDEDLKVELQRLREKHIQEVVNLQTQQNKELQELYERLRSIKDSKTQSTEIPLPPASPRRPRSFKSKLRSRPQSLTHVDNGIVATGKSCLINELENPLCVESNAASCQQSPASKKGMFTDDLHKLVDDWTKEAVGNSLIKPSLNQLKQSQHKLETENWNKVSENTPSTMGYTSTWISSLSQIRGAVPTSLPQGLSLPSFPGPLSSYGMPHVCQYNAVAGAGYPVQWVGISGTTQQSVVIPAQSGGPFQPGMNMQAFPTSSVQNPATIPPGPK
experimental_protocol: radiometric filter-binding kinase assay, Kinase HotSpot
assay_context: compound 0.5 µM; ATP 10 µM
Give bare numbers, in %.

>>> measured_result("COc1cc(Nc2c(C#N)cnc3cc(OCCCN4CCN(C)CC4)c(OC)cc23)c(Cl)cc1Cl")
91.8
>>> measured_result("CCCCc1c(-c2ccc(OC)cc2)[nH]c2nccnc12")
88.4
>>> measured_result("CN(C)S(=O)(=O)c1ccc2c(c1)/C(=C/c1cc3c([nH]1)CCCC3)C(=O)N2")
96.5
>>> measured_result("COc1ccc(C(=O)Nc2sc3c(c2C(N)=O)CCCC3)cc1OC")
96.4
>>> measured_result("c1ccc2c(-c3ccncc3)c[nH]c2c1")
100

Recorded residual activity for O=C1NC(=O)c2c1c1c3ccccc3[nH]c1n1cncc21 , please? 79.1

====

assayed_system: DYRK1B (human) (UniProt Q9Y463)
Sequence (Q9Y463 whole entry, looked up): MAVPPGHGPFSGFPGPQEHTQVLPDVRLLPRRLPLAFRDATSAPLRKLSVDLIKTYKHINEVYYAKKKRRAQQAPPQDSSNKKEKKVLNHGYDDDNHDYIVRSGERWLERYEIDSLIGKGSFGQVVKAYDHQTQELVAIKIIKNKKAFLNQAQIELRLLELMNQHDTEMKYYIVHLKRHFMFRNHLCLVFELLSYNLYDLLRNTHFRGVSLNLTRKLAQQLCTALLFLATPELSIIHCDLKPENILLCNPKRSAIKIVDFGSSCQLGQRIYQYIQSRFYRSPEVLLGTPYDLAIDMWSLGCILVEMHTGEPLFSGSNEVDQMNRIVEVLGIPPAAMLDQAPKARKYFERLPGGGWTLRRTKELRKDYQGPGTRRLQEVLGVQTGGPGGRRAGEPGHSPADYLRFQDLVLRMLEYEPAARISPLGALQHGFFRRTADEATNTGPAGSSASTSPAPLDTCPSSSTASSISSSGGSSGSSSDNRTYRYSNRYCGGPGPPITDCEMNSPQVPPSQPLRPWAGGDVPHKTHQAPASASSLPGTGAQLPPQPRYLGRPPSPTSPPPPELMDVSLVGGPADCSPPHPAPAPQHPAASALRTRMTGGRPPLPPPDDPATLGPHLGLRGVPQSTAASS
experimental_protocol: radiometric filter-binding kinase assay, Kinase HotSpot
assay_context: compound 0.5 µM; ATP 10 µM
readout_label: residual activity (%)
One number for each entry, in %.

Below: 3 compounds and their reported residual activity.
>>> measured_result("CS(=O)(=O)CCNCc1ccc(-c2ccc3ncnc(Nc4ccc(OCc5cccc(F)c5)c(Cl)c4)c3c2)o1")
93.1
>>> measured_result("COc1cc2ncnc(Nc3ccc(OCc4ccccc4)cc3)c2cc1OC")
104
>>> measured_result("CN1CCN(c2ccc3nc(-c4c(N)c5c(F)cccc5[nH]c4=O)[nH]c3c2)CC1")
87.9

Report residual activity for each item below.
1. Fc1ccc(-c2nc3n(c2-c2ccncc2)CCS3)cc1
2. O=C1Nc2ccc(Br)cc2/C1=C\c1cc2c([nH]1)CCCC2
3. N#C/C(=C\c1ccc(O)c(O)c1)C(=O)NCc1ccccc1

104
93.9
106

====

Kindly state residual activity for each of the entries shown.
assayed_system: CSF1R (human) (UniProt P07333)
Sequence (P07333 whole entry, looked up): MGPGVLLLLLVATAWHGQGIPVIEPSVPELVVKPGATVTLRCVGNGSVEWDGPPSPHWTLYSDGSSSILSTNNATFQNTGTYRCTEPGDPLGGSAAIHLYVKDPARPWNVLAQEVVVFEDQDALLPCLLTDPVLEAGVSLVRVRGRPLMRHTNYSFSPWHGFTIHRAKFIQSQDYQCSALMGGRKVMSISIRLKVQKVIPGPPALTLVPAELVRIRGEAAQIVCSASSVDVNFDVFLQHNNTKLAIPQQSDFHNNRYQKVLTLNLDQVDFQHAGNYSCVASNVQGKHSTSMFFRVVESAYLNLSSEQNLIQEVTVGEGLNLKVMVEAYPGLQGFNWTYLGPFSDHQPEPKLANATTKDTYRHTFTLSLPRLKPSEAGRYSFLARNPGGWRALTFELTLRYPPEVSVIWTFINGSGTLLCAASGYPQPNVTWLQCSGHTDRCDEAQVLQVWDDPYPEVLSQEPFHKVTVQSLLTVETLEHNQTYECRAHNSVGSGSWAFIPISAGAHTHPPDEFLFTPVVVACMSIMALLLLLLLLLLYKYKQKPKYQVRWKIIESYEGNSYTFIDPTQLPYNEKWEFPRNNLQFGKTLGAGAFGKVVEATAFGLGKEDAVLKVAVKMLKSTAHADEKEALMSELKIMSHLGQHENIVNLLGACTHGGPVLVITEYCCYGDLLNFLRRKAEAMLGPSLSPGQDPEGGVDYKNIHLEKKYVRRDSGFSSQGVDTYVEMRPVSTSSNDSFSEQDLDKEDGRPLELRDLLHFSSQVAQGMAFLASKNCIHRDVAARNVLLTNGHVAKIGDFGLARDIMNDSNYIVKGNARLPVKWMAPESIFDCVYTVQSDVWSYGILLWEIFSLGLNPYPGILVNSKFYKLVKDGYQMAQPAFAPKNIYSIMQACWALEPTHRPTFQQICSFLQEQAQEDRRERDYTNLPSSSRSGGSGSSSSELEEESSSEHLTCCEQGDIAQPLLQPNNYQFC
experimental_protocol: radiometric filter-binding kinase assay, Kinase HotSpot
assay_context: compound 0.5 µM; ATP 10 µM
One number for each entry, in %.

Below: 3 molecules and their reported residual activity.
>>> measured_result("CN(C)CCCn1cc(C2=C(c3c[nH]c4ccccc34)C(=O)NC2=O)c2ccccc21")
76.7
>>> measured_result("Fc1ccc(-c2nc3n(c2-c2ccncc2)CCS3)cc1")
103
>>> measured_result("Cc1cccc(-c2nc(C(C)(C)C)[nH]c2-c2ccc3c(c2)OCO3)n1")
102

Report residual activity for each item below.
1. CS(=O)(=O)CCNCc1ccc(-c2ccc3ncnc(Nc4ccc(OCc5cccc(F)c5)c(Cl)c4)c3c2)o1
2. COc1ccc(S(=O)(=O)N(CCO)c2ccccc2CN(C)C/C=C/c2ccc(Cl)cc2)cc1
3. c1ccc2c(-c3ccncc3)c[nH]c2c1
4. N#Cc1c[nH]c2c[nH]/c(=N\Cc3cccnc3)cc2/c1=N\c1ccc(F)c(Cl)c1
5. COc1ccc(Cl)cc1NC(=O)Nc1cc(C)nc2ccccc12
6. N#C/C(=C\c1ccc(O)c(O)c1)C(=O)NCc1ccccc1

106
103
101
96.3
94.8
100

====

assayed_system: RAF1 (human)
experimental_protocol: radiometric filter-binding kinase assay, Kinase HotSpot
assay_context: compound 0.5 µM; ATP 10 µM
Kindly state residual activity for each of the entries shown.
Give bare numbers, in %.

>>> measured_result("Cc1nc(-c2ccccc2)c(-c2ccncc2)o1")
92.6
>>> measured_result("CN(C)c1ccc(/C=C2\\C(=O)Nc3ccccc32)cc1")
101
>>> measured_result("COc1ccc(S(=O)(=O)N(CCO)c2ccccc2CN(C)C/C=C/c2ccc(Cl)cc2)cc1")
93.7

Report residual activity for each item below.
1. CN(C)CCCn1cc(C2=C(c3c[nH]c4ccccc34)C(=O)NC2=O)c2ccccc21
2. COc1cc2ncnc(Nc3ccc(OCc4ccccc4)cc3)c2cc1OC
3. CC(C)(C)c1cc(C=C(C#N)C#N)cc(Br)c1O
4. CO[C@@H]1[C@H](N(C)C(=O)c2ccccc2)C[C@H]2O[C@]1(C)n1c3ccccc3c3c4c(c5c6ccccc6n2c5c31)C(=O)NC4
5. Cc1cccc(-c2nc(C(C)(C)C)[nH]c2-c2ccc3c(c2)OCO3)n1
6. N#C/C(=C\c1ccc(O)c(O)c1)C(=O)NCc1ccccc1
7. COc1cc(Nc2c(C#N)cnc3cc(OCCCN4CCN(C)CC4)c(OC)cc23)c(Cl)cc1Cl
8. COc1ccc2c(c1)/C(=C/c1cnc[nH]1)C(O)=N2

[118, 61, 104, 114, 86.2, 92.8, 105, 98.3]
